system: NCI-H322M lung; assay: NCI-60 one-dose screen, 48 h (100 = growth as untreated, 0 = no growth, -100 = all killed); details: 10 µM unless noted
This is part of a sample that, as a whole, favours compounds with a hit. Of some 83,000 tested, about 20% had one in any assay.
property: growth (%)
Reply numerically in %, unit not repeated.

Ask: Data request, read-out growth, for COc1ccccc1C(=O)NN1C(=O)/C(=C/C2=Cc3ccccc3OC2)SC1=S
Result: 99.4

Ask: Using the record for CN(C)CCn1c2ccccc2c2nc3cc4ccccc4cc3nc21 , report its growth.
Result: 29.6

Ask: Could you share which growth value was measured for COc1ccc(NC(=O)c2sc3nc(C(C)C)ccc3c2N)cc1 ?
Result: 69.5

Ask: May I ask what growth has been recorded for OCNc1ccc(-n2cnc3cc(-c4ccc(O)cc4)ccc32)cc1C(F)(F)F ?
Result: 46.3

Ask: Find the recorded growth belonging to CC(=O)Nc1ccc(-c2cn(-c3cccc(C(=O)Nc4ccc(N5CCN(C)CC5)cc4)c3)nn2)cn1 and report it.
Result: 96.2

Ask: Which growth value belongs to Cc1ccc2c(N)c(C(=O)Nc3ccc(OC(F)(F)F)cc3)sc2n1 ?
Result: 82.5

Ask: Please give the measured growth for this compound: COc1cc2oc(-c3cccc(NC(=O)[C@H](Cc4ccccc4)NC(=O)OC(C)(C)C)c3)cc(=O)c2c(OC)c1OC
Result: 46.1

Ask: I am curious: what growth value has been reported for COc1c(F)ccc(C(=O)Nc2ccc3nc(NC(=O)C4CCCN(S(=O)(=O)C5CC5)C4)sc3c2)c1F (configuration not stated) ?
Result: 65.2

Ask: Report growth for CC(C)c1sc(NC(=O)c2cc(NC(=O)c3cc(NC(=O)c4nccn4C)cn3C)cn2C)nc1C(=O)NCCCN(C)C please.
Result: 95.6

Ask: // returns reported growth for input C#CCOc1ccc(/C=N/Nc2nc(-c3ccc(F)cc3)cs2)cc1OC
Result: 83.1

Ask: For N/C(=N\c1nc2ccccc2s1)NC(=O)Nc1ccc(Cl)cc1Cl , what is its reported growth?
Result: -51.3

Ask: Which growth is listed for Cc1cccc(Nc2nc3ccccc3nc2/C=C/c2ccc(F)cc2)c1 ?
Result: 95.5

Ask: Please give the measured growth for this compound: O=C1Nc2cc(Cl)ccc2/C1=C/c1cccc(OCc2ccccn2)c1
Result: 68.2

Ask: Query (compound): O=C(c1ccccc1)C(c1c[nH]c2ccccc12)c1c[nH]c2ccccc12 ; field requested: growth
Result: 96.5

Ask: // returns reported growth for input O=C(/C=C/c1ccc(O)c(O)c1)NC1CCOC1O (configuration not stated)
Result: 105

Ask: Return reported growth; argument: COc1ccc(-c2nc3cc(C)ccc3n2CC(=O)N=Nc2c(O)[nH]c3ccc(Br)cc23)cc1
Result: 14.2

Ask: Which growth reading was recorded for the compound CC1=C(C(=O)c2ccccc2)C(c2cccc(Cl)c2Cl)n2c(nc3ccccc32)N1 (configuration not stated) ?
Result: 72

Ask: Look up growth for this compound: O=c1[nH]c(=O)c2c(-c3cc4ccccc4oc3=O)ccnc2[nH]1
Result: 97

Ask: Can you look up the measured growth of N#Cc1c(-c2ccccc2Cl)cc(-c2c[nH]c3ccccc23)[nH]c1=O for me?
Result: 72.9

Ask: # lookup: growth of COc1cc2oc(-c3cccc(C(=O)Nc4ccc(Cl)cc4)c3)cc(=O)c2c(OCC(=O)N[C@@H](Cc2ccccc2)C(=O)O)c1OC
Result: 103

Ask: Which value of growth has been reported for O=C(c1ccc(Cl)cc1)c1ccc(OCCCN2CCN(c3ccncc3)CC2)cc1 in the records?
Result: 82.1

Ask: Can you share its growth? I mean this compound: C=C1CC[C@@H]2[C@]3(C)COC(c4cn[nH]c4-c4ccc(OC)cc4)O[C@@H]3CC[C@@]2(C)[C@@H]1C/C=C1/C(=O)OCC1O (some centres not stated)
Result: 32.6

Ask: Entry CSc1ccc(C(=O)Nc2ccc3nnn(/C(C#N)=C/c4ccccn4)c3c2)cc1 : reported growth = ?
Result: 57.9

Ask: So what's the measured growth for this one? COc1ccc(C2=NN(C(C)=O)C(c3ccc(OCc4ccc(Cl)cc4)c(OC)c3)C2)cc1OC (configuration not stated)
Result: 81.9

Ask: Given the entry CN(C)CCOc1ccc(C(=O)C2[C@H](c3ccc(Cl)cc3)[C@@H](c3ccccc3)NC23C(=O)Nc2ccccc23)cc1 (some centres not stated) , report its measured growth.
Result: 82.5

Ask: Quick one: growth for Cc1cc(=O)oc2cc(OCCCCOc3ccc(/C=C/C(=O)Nc4ccccc4N)cc3)ccc12 ?
Result: 82.2

Ask: // lookup growth for CCOC(=O)C1=C(N)N(c2ccccc2)C2=C(C(=O)CC(C)(C)C2)C1c1ccccc1Cl (configuration not stated)
Result: 82.2

Ask: Need growth of COc1ccc(-c2nc3cc(C)ccc3n2CC(=O)N=Nc2c(O)[nH]c3ccc(Cl)cc23)cc1 , thanks.
Result: 10.1

Ask: Quick one: growth of COc1cc(C2CC(c3cc(OC)c(OC)c(OC)c3)=NN2c2ccccc2)ccc1OCc1ccc(C)cc1 (configuration not stated) ?
Result: 102

Ask: growth lookup needed for CC(=O)Nc1cccc(-c2nc3cc(-c4ccc(O)cc4)ccc3n2C)c1 , thanks.
Result: 67.1

Ask: What value of growth has been recorded for this entry: Cc1nc(Nc2ncc(C(=O)Nc3c(C)cccc3Cl)s2)cc(N2CCN(CCCNC(=O)COc3ccc(C4CCC(=O)NC4=O)cc3)CC2)n1 (configuration not stated)
Result: 20.8

Ask: What value of growth has been recorded for this entry: CCCn1cc(-c2nc(Nc3ccc(C(=O)NCCCCNc4cccc5c4C(=O)N(C4CCC(=O)NC4=O)C5=O)cc3)nc3[nH]ccc23)cn1 (configuration not stated)
Result: 7.64

Ask: # input compound: COc1ccc(C2=NN(c3ccccc3)C(c3ccc(OC)c(OCc4ccccc4)c3)C2)cc1OC (configuration not stated) ; wanted: its growth
Result: 102

Ask: Can you look up the measured growth of COc1cc(OC)c2c3nc4cc(C)c(C)cc4nc3n(CCN(C)C)c2c1 for me?
Result: 73.3

Ask: // returns reported growth for input CC1=C(C(=O)c2ccccc2)C(c2ccc(-n3cncn3)cc2)n2c(nc3ccccc32)N1 (configuration not stated)
Result: 79.5

Ask: Consider the compound shown here: Cc1occc1C(=O)NN1C(=O)/C(=C/C=C/c2ccc([N+](=O)[O-])o2)SC1=S What is its recorded growth?
Result: 66.8

Ask: What value of measured growth is listed for O=C(NNc1nc2cc(F)ccc2n2c(CN3CC4CNCC4C3)ccc12)c1ccncn1 (configuration not stated) ?
Result: 30.8
